Data origin, for the record: patent US7420056B2

- TARGET_OR_TEST_SYSTEM: mGluR5 receptor (Sus scrofa)
- Sequence (I3LUI7 19-1212): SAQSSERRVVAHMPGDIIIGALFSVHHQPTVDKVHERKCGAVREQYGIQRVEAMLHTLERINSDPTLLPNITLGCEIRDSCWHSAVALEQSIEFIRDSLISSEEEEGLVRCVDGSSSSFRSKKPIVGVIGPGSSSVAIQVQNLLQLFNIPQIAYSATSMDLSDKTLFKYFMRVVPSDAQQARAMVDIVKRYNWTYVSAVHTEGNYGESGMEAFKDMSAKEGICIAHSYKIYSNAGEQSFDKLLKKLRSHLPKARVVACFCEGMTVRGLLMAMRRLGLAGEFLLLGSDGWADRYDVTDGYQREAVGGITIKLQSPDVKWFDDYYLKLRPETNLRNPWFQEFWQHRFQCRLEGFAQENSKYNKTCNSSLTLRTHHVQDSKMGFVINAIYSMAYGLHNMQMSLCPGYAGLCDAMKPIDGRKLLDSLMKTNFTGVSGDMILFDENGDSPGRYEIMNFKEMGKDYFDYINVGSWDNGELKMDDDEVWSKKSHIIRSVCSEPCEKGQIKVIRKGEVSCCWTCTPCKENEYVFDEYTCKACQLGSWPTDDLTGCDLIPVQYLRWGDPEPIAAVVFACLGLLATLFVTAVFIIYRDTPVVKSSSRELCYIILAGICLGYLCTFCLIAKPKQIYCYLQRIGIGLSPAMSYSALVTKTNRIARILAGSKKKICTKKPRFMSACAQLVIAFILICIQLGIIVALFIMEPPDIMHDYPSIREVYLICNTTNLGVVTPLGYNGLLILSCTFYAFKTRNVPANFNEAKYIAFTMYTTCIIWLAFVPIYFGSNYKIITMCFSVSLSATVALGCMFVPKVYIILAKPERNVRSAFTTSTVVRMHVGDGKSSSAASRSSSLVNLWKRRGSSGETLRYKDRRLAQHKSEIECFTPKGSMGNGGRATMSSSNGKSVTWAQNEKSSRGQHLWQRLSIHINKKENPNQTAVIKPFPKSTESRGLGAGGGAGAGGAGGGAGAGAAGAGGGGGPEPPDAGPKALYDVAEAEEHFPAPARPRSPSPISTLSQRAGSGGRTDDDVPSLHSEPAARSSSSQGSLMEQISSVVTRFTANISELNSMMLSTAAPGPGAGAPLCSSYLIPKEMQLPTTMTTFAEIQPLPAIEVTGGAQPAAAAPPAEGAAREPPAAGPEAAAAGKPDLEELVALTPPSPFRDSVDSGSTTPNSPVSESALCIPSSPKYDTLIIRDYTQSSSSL
- TEST_DESCRIPTION: Affinity for the mGluR5 receptor: inhibition of 3[H]-MPEP binding in pig brain homogenate
- TEST_PARAMETERS: 10 μM compound, 5 nM 3[H]-MPEP, read-out: mGluR5 receptor inhibition of ^3[H]-MPEP binding [10 μM] in % at a concentration of the example compounds of 10 μM
Measured inhibition at 10 µM by item

COMPOUND: CC(C)c1ccn2c(NC(C)(C)C)c(-c3ccc(C#Cc4ccccn4)cc3)nc2c1 [Example 307]
inhibition at 10 µM: 88%
--
COMPOUND: Cc1cccc(C#Cc2cccc(-c3nc4ncccn4c3NC3CCCC3)c2)n1 [Example 259]
inhibition at 10 µM: 82%
--
COMPOUND: C(#Cc1ccc(-c2nc3ncccn3c2NCC2CCCCC2)s1)c1ccccc1 [Example 9]
inhibition at 10 µM: 98%
--
COMPOUND: CCc1ccn2c(NCc3ccccc3Cl)c(-c3ccc(C#Cc4ccccc4)s3)nc2c1 [Example 45]
inhibition at 10 µM: 93%
--
COMPOUND: CC(C)(C)CC(C)(C)Nc1c(-c2cccc(C#Cc3ccccn3)c2)nc2ccccn12 [Example 262]
inhibition at 10 µM: 72%

* * *

- TARGET_OR_TEST_SYSTEM: mGluR5 receptor (Sus scrofa)
- TEST_DESCRIPTION: Affinity for the mGluR5 receptor: inhibition of 3[H]-MPEP binding in pig brain homogenate
- TEST_PARAMETERS: 10 μM compound, 5 nM 3[H]-MPEP, read-out: mGluR5 receptor inhibition of ^3[H]-MPEP binding [10 μM] in % at a concentration of the example compounds of 10 μM
- Description: 1. Method for Determining Affinity for the mGluR5 Receptor […] The batches are then filtered with the assistance of a Brandel Cell Harvester (Brandel, Grade Robotic 9600) on Unifilter plates with glass filter mats (Perkin Elmer, order number 6005177) and then washed 3 times with buffer (as above) using 250 μl per sample. […] Nonspecific binding is determined by the addition of 10 μM MPEP (Tocris, order number 1212).
Reported inhibition at 10 µM values are given for each entry in this list.

COMPOUND: CC(C)(C)Nc1c(-c2cc(C#Cc3ccccc3)cs2)nc2cnccn12 [Example 55]
inhibition at 10 µM / %: 77
//
COMPOUND: Cc1nc(C#Cc2ccccc2)ccc1-c1nc2ccccn2c1Nc1ccc(F)cc1 [Example 266]
inhibition at 10 µM / %: 63
//
COMPOUND: CCc1ccn2c(NC(C)(C)C)c(-c3ccc(C#Cc4ccccn4)o3)nc2c1 [Example 304]
inhibition at 10 µM / %: 94
//
COMPOUND: COc1ccc(CNc2c(-c3ccc(C#Cc4ccccc4)s3)nc3cccc(C)n23)cc1 [Example 10]
inhibition at 10 µM / %: 95
//
COMPOUND: COc1cccc(CCNc2c(-c3cc(C#Cc4ccccc4)cs3)nc3nc(C)ccn23)c1 [Example 217]
inhibition at 10 µM / %: 62
//
COMPOUND: Cc1cc(C)n2c(NCc3ccc(Cl)cc3)c(-c3cc(C#Cc4ccccc4)cs3)nc2c1 [Example 230]
inhibition at 10 µM / %: 60
//
COMPOUND: Fc1ccc(Nc2c(-c3ccc(C#Cc4ccccn4)cc3)nc3cnccn23)cc1 [Example 242]
inhibition at 10 µM / %: 91
//
COMPOUND: Cc1cccc(C#Cc2cccc(-c3nc4cccc(C)n4c3NC(C)(C)C)c2)n1 [Example 290]
inhibition at 10 µM / %: 88
//
COMPOUND: Cc1cc(C)n2c(NCC3CCCCC3)c(-c3ccc(C#Cc4ccccc4)s3)nc2c1 [Example 6]
inhibition at 10 µM / %: 92
//
COMPOUND: Cc1nc(C#Cc2ccccc2)ccc1-c1nc2ccccn2c1NC1CCCC1 [Example 265]
inhibition at 10 µM / %: 68
